Sourced from patent US20120329865A1

- ASSAY TARGET: UniProt:Q12809
- METHOD: DMR antagonism mode: modulation of the mallotoxin DMR signal in HT29 cells
- CONDITION INFO: molecule 10 micromolar, mallotoxin 16 micromolar; antagonism assay
MEASURE NAME: effect on the mallotoxin DMR signal in HT29 cells (in words)

1) CC1=C(C#N)C(=C(C#N)C#N)OC1(C)c1ccc(F)cc1F (stereo not shown)
attenuated signal
2) CCCCc1ccc(C2(C)OC(=C(C#N)C#N)C(C#N)=C2C)cc1 (stereo not shown)
attenuated signal

====

- ASSAY TARGET: hERG ion channels (Homo sapiens)
- Sequence (Q12809 whole entry): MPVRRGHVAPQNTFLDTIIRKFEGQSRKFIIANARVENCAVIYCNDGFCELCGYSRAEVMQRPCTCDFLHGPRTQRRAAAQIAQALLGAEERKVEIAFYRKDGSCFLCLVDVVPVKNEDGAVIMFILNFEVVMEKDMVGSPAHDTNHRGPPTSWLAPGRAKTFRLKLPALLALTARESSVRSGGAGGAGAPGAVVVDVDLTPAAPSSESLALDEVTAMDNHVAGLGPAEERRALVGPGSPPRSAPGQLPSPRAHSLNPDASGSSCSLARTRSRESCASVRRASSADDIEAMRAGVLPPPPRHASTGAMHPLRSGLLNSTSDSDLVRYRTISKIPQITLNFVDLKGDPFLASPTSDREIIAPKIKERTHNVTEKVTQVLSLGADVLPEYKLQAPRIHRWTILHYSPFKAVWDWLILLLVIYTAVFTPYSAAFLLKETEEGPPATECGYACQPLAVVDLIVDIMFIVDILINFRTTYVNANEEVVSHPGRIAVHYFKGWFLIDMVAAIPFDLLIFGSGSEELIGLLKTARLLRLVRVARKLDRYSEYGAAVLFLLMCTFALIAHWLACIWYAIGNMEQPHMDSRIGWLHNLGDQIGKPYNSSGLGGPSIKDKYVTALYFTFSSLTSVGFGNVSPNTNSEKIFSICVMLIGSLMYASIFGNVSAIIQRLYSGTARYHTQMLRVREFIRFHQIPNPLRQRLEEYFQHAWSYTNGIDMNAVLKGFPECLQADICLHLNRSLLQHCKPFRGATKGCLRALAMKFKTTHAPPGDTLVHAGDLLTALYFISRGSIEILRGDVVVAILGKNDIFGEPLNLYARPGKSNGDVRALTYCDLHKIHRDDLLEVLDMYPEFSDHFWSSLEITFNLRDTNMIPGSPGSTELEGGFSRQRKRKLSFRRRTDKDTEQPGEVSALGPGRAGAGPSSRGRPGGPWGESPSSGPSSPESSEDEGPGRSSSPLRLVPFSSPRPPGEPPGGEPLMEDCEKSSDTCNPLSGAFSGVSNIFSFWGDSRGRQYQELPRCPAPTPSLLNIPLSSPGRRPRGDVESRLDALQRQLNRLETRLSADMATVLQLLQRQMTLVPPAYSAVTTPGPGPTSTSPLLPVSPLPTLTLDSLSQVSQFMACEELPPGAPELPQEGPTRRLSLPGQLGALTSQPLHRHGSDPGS
- METHOD: Label-free RWG biosensor (Epic) DMR assay, agonism mode, HT29 cells endogenously expressing hERG
- CONDITION INFO: 10 micromolar
MEASURE NAME: DMR signal in HT29 cells

1. CC1=C(C#N)C(=C(C#N)C#N)OC1(c1ccccc1)C(F)(F)F (stereo not shown) [Compound B]
robust DMR signals
2. CC1=C(C#N)C(=C(C#N)C#N)OC1(C)c1ccc(F)cc1F (stereo not shown) [Compound D]
robust DMR signals
3. CCCCc1ccc(C2(C)OC(=C(C#N)C#N)C(C#N)=C2C)cc1 (stereo not shown) [Compound E]
robust DMR signals
4. O=C(O)c1ccccc1Nc1cccc(C(F)(F)F)c1 [flufenamic acid]
robust DMR signals
